# testedOn: recombinant kRas mutant (G12C; C51S; C80L; C118S) (Homo sapiens, UniProt P01116, C118S/C51S/C80L/G12C)
# measurementProtocol: Covalent binding assay, intact mass LC-MS
# testSettings: 25 μM protein, 25 μM compound, room temperature, 2 h
# Experimental: The percentage of covalent adduct formation at KRas G12C was determined by intact mass determination. […] Liquid chromatography-mass spectrometry (LC-MS) analysis was performed using a Waters SYNAPT G2-S quadrupole time-of-flight mass spectrometer connected to a Waters nanoAcquity UPLC system. […] Spectra were analyzed by using MassLynx v4.1 software and deconvoluted with the MaxEnt1 algorithm. Percent conversion was determined by the ratio of signal intensities of apo-kRas and kRas+inhibitor.
assayReadout: Covalent Binding Assay (% binding) (%)

Solved entries:
In [3]: df
Out[3]:
                                   compound  measurementunits  recordedvalue
0  C=CC(=O)N1CCC(c2nc3cnc(-c4c(O)cccc4F)cc3c(=O)[nH]2)C1 (centres unmarked)                 %             73
1  C=CC(=O)N1CCC(c2nc3cc(Cl)c(-c4c(C)ccc5[nH]ncc45)cc3c(=O)[nH]2)C1 (centres unmarked)                 %             81

[P] C=CC(=O)N1CCC(c2cc3ncc(-c4cc(O)ccc4F)cc3c(=O)[nH]2)C1 (centres unmarked)
[Q] C=CC(=O)N1CCC(c2cc3ccc(-c4ccc(F)c(F)c4F)cc3c(=O)[nH]2)C1 (centres unmarked)
[R] C=CC(=O)N1CCC(c2nc3cc(Cl)c(-c4c(O)cccc4F)cc3c(=O)[nH]2)C1 (centres unmarked)
Falling order of Covalent Binding Assay (% binding), please. // list labels; follow requested order
P, R, Q

====

# testedOn: recombinant kRas mutant (G12C; C51S; C80L; C118S) (Homo sapiens, UniProt P01116, C118S/C51S/C80L/G12C)
# measurementProtocol: Covalent binding assay, intact mass LC-MS
# testSettings: 25 μM protein, 25 μM compound, room temperature, 2 h
assayReadout: Covalent Binding Assay (% binding) (%)

>>> df
                                   compound  recordedvalue
0  C=CC(=O)N1CCC(c2cc3ncc(-c4ccc(F)c(O)c4)cc3c(=O)[nH]2)C1 (centres unmarked) [Example 37]             21

[I] C=CC(=O)N1CCC(c2nc3ccc(-c4ccccc4F)cc3c(=O)[nH]2)C1 (centres unmarked) [Example 12]
[II] C=CC(=O)N1CCC(c2cc3ccc(-c4cccc5[nH]ccc45)cc3c(=O)[nH]2)C1 (centres unmarked) [Example 3]
# min-compare on Covalent Binding Assay (% binding) between I and II State your choice using its label.
II
(II: 8%, I: 70%)

[1] C=CC(=O)N1CCC(c2nc3cc(Cl)c(-c4c(F)cccc4OC)cc3c(=O)[nH]2)C1 (centres unmarked) [Example 21]
[2] C=CC(=O)N1CCC(c2cc3ccc(-c4ccc(F)c(OCC)c4F)cc3c(=O)[nH]2)C1 (centres unmarked) [Example 6]
[3] C=CC(=O)N1CCC(c2cc3ccc(-c4ccccc4CC)cc3c(=O)[nH]2)C1 (centres unmarked) [Example 5]
[4] C=CC(=O)N1CCC(c2cc3ncc(-c4sc(C)nc4C)cc3c(=O)[nH]2)C1 (centres unmarked) [Example 34]
Form: Sort by [Covalent Binding Assay (% binding)] Order [ ascending ] // list labels; follow requested order
4, 2, 1, 3
(4: 0%, 2: 3%, 1: 26%, 3: 60%)

====

# testedOn: recombinant kRas mutant (G12C; C51S; C80L; C118S) (Homo sapiens, UniProt P01116, C118S/C51S/C80L/G12C)
# measurementProtocol: Covalent binding assay, intact mass LC-MS
# testSettings: 25 μM protein, 25 μM compound, room temperature, 2 h
assayReadout: Covalent Binding Assay (% binding) (%)

Solved entries:
>>> print(df.to_string())
                                   compound  recordedvalue
0  C=CC(=O)N1CCC(c2nc3cc(Cl)c(-c4ccccc4F)cc3c(=O)[nH]2)C1 (centres unmarked)             31
1  C=CC(=O)N1CCC(c2nc3ccc(-c4c(O)cccc4F)nc3c(=O)[nH]2)C1 (centres unmarked)              0
2  C=CC(=O)N1CCC(c2cc3ncc(-c4ccccc4CC)cc3c(=O)[nH]2)C1 (centres unmarked)             60
3  C=CC(=O)N1CCC(c2nc3ccc(-c4cc(Cl)cc(C#N)c4)cc3c(=O)[nH]2)C1 (centres unmarked)              0
4  C=CC(=O)N1CCC(c2cc3ncc(-c4cccnc4N4CCOCC4)cc3c(=O)[nH]2)C1 (centres unmarked)              0

[A] C=CC(=O)N1CCC(c2cc3ncc(-c4c(O)cccc4F)cc3c(=O)[nH]2)C1 (centres unmarked)
[B] C=CC(=O)N1CCC(c2cc3cc(O)c(-c4ncccc4F)cc3c(=O)[nH]2)C1 (centres unmarked)
[C] C=CC(=O)N1CCC(c2nc3cc(Cl)c(-c4ccc(F)cc4F)cc3c(=O)[nH]2)C1 (centres unmarked)
Form: Sort by [Covalent Binding Assay (% binding)] Order [ ascending ] // list labels; follow requested order
B, C, A

====

# testedOn: KRAS^G12C (Homo sapiens, UniProt P01116, G12C)
# measurementProtocol: KRAS G12C activation by SOS1cat assay (On-assay), HTRF
# testSettings: SOS1cat mediated loading of GST-KRAS G12C-GDP with fluorescent GTP analogue; 180 min preincubation; 20° C.; read-out: IC50 value biochemical KRAS^G12C activation assay
pIC50: −log10 of the molar value.
assayReadout: pIC50

In [3]: df
Out[3]:
                                   compound                                  testedon  recordedvalue
0  C=CC(=O)N1CCC(c2nc3ccc(-c4ccccc4F)cc3c(=O)[nH]2)C1 (centres unmarked)  KRAS^G12C (Homo sapiens, UniProt P01116, G12C)           5.21
1  C=CC(=O)N1CCC(c2nc3cc(Cl)c(-c4c(C)ccc5[nH]ncc45)cc3c(=O)[nH]2)C1 (centres unmarked)  KRAS^G12C (Homo sapiens, UniProt P01116, G12C)           5.30

[a] C=CC(=O)N1CCC(c2nc3cnc(-c4c(O)cccc4F)cc3c(=O)[nH]2)C1 (centres unmarked)
[b] C=CC(=O)N1CCC(c2cc3cnc(-c4c(O)cccc4F)cc3c(=O)[nH]2)C1 (centres unmarked)
[c] C=CC(=O)N1CCC(c2nc3cc(Cl)c(-c4ccccc4F)cc3c(=O)[nH]2)C1 (centres unmarked)
[d] C=CC(=O)N1CCC(c2cc3ccc(-c4ccc(F)cc4F)cc3c(=O)[nH]2)C1 (centres unmarked)
Form: Sort by [pIC50] Order [ ascending ] // list labels; follow requested order
c, d, a, b

====

# testedOn: KRAS^G12C (Homo sapiens, UniProt P01116, G12C)
# measurementProtocol: KRAS G12C activation by SOS1cat assay (On-assay), HTRF
# testSettings: SOS1cat mediated loading of GST-KRAS G12C-GDP with fluorescent GTP analogue; 180 min preincubation; 20° C.; read-out: IC50 value biochemical KRAS^G12C activation assay
# Procedure: Preparation of test compound dilutions. […] Measurement and evaluation of inhibition data, calculation of IC50 values. Homogeneous time-resolved fluorescence (HTRF) was measured with a PHERAstar reader (BMG, Germany) using the HTRF module (excitation: 337 nm; emission 1: 620 nm, emission 2: 665 nm). […] IC50 values were calculated using a four-parameter fit, with a commercial software package (Genedata Screener, Switzerland). […]
pIC50: −log10 of the molar value.
assayReadout: pIC50

Solved entries:
In [3]: df
Out[3]:
                                   compound                                  testedon  recordedvalue
0  C=CC(=O)N1CCC(c2cc3ccc(-c4c(O)cccc4F)cc3c(=O)[nH]2)C1 (stereo not shown) [Example 1]  KRAS^G12C (Homo sapiens, UniProt P01116, G12C)           5.33
1  C=CC(=O)N1CCC(c2cc3ncc(-c4c(O)cccc4F)cc3c(=O)[nH]2)C1 (stereo not shown) [Example 29]  KRAS^G12C (Homo sapiens, UniProt P01116, G12C)           5.55
2  C=CC(=O)N1CCC(c2nc3cc(Cl)c(-c4c(O)cccc4F)cc3c(=O)[nH]2)C1 (stereo not shown) [Example 24]  KRAS^G12C (Homo sapiens, UniProt P01116, G12C)           5.04
3  C=CC(=O)N1CCC(c2cc3ccc(-c4ccccc4CC)cc3c(=O)[nH]2)C1 (stereo not shown) [Example 5]  KRAS^G12C (Homo sapiens, UniProt P01116, G12C)           5.10
4  C=CC(=O)N1CCC(c2nc3cnc(-c4c(C)ccc5[nH]ncc45)cc3c(=O)[nH]2)C1 (stereo not shown) [Example 40]  KRAS^G12C (Homo sapiens, UniProt P01116, G12C)           5.33

[P] C=CC(=O)N1CCC(c2nc3ccc(-c4c(F)cccc4OC)cc3c(=O)[nH]2)C1 (stereo not shown) [Example 11]
[Q] C=CC(=O)N1CCC(c2cc3ncc(-c4ccccc4F)cc3c(=O)[nH]2)C1 (stereo not shown) [Example 30]
# min-compare on pIC50 between P and Q State your choice using its label.
P
(P: 4.80, Q: 5.28)
